Test: Inhibition of gamma-secretase expressed in CHO cells expressing human recombinant APP assessed as amyloid beta40 […]
Format: cell-based
Endpoint: IC50 (µM)

Structure: CCC(CC)[C@@H](CO)NS(=O)(=O)c1ccc(Cl)s1
Units Text: µM
IC50: 0.025

Structure: O=S(=O)(N[C@H](CO)C(C(F)(F)F)C(F)(F)F)c1ccc(Cl)s1
Units Text: µM
IC50: 0.015

(A) O=S(=O)(N[C@H](CO)C(CC(F)(F)F)CC(F)(F)F)c1ccc(Cl)s1
(B) CC[C@H](C)[C@@H](CO)NS(=O)(=O)c1ccc(Br)cc1
(C) CC[C@H](C)[C@@H](CO)NS(=O)(=O)c1ccc(Cl)cc1
Thanks in advance: please rank these 3 entries by IC50, highest to lowest. Provide the labels, sequenced as the question asks.
C, B, A

The values you see were collected from ChEMBL document CHEMBL1140230.
